Entry source: patent US20210177542A1

- assay_protocol: Hygroscopicity (moisture absorption) of the powder types
- Format: physicochemical
- run_parameters: sensitivity to moisture during sterilizing
observable: Classification as hygroscopic

compound | result
O=C([O-])O.[Na+] [Sodium bicarbonate, sodium bicarbonate] | hygroscopic
OC[C@@H](O)[C@@H](O)CO | hygroscopic
NCC(=O)O | hygroscopic

###

- assay_protocol: Solubility in water at 20° C.
- Format: physicochemical
- run_parameters: water, Table 1
observable: solubility
Give the value; after it, write the unit.

smiles_input | solubility
OC[C@@H](O)[C@@H](O)CO | 540 mg/mL

Enquiry: # solubility lookup, item OC[C@H]1O[C@H](O[C@H]2O[C@H](CO)[C@@H](O)[C@H](O)[C@H]2O)[C@H](O)[C@@H](O)[C@@H]1O
Return: 690 mg/mL

###

- assay_protocol: Density of the powder
- Format: physicochemical
- run_parameters: Table 1
observable: Density (g/mL)
Answers are plain numbers, in g/mL.

Please supply Density for each of the following items, keeping them in order.
1. OC[C@H]1O[C@H](O[C@H]2O[C@H](CO)[C@@H](O)[C@H](O)[C@H]2O)[C@H](O)[C@@H](O)[C@@H]1O
2. NCC(=O)O
3. O=C([O-])O.[Na+] [Sodium bicarbonate, sodium bicarbonate]
4. OC[C@@H](O)[C@@H](O)CO

Return:
1: 1.80; 2: 1.61; 3: 2.54; 4: 1.45
